Protocol notes: in vivo
Condition set: mouse, in vivo, ip, 10 mg/kg
Recorded endpoint: Kp at 2 hr
The answer should be written as a number, with no unit following it.

Report Kp at 2 hr for `CCc1cc(N(C)C)c2c(c1O)C(=O)C1=C(O)[C@]3(O)C(=O)C(C(N)=O)=C(O)[C@@H](N(C)C)[C@@H]3C[C@@H]1C2`
0.568

---

Protocol notes: in vivo
Condition set: rat
Recorded endpoint: half-life (h)
The answer is to be given in h; state only the numeric part.

Report half-life for CCc1cc(N(C)C)c2c(c1O)C(=O)C1=C(O)[C@]3(O)C(=O)C(C(N)=O)=C(O)[C@@H](N(C)C)[C@@H]3C[C@@H]1C2 [Compound 1]
3.5
